test system: LXFL 529; test: NCI tumour cell line growth inhibition, 48 h
Active and inactive are the calls of the source. Cut-off read from the data, not from the text of the source: active = GI50 up to about 1.1 µM and inactive = higher.
Reported GI50 values follow for various molecules
quantity.name: GI50

>>> df
                                    molecule    system           meas_value
 0       Cc1c(Cl)c2ccccc2n1S(=O)(=O)c1ccccc1  LXFL 529   42.1 µM (inactive)
 1  CCC(CC)n1cc(C(=O)NC(=O)NCCCCCOC(=O)CCCCCCCCCCC(=O)OCCCCCNC(=O)NC(=O)c2cn(C(CC)CC)c(=O)[nH]c2=O)c(=O)[nH]c1=O  LXFL 529   62.8 µM (inactive)
 2  CC12CCC3(OCCO3)C(OC(=O)c3ccccc3)=C1CCC21OCCO1 (stereo unspecified)  LXFL 529  > 100 µM (inactive)
 3  N#Cc1c(-c2ccc(Cl)c(Cl)c2)c(-c2ccc(Cl)c(Cl)c2)nn(CC(=O)O)c1=O  LXFL 529   72.4 µM (inactive)
 4  O=c1c(-c2cccc3ccccc23)c(-c2cccc3ccccc23)c1=O  LXFL 529   3.05 µM (inactive)
 5     COc1cc(/C=C2\Cc3ccccc3C2=O)cc(OC)c1OC  LXFL 529  > 100 µM (inactive)
 6  NC(=O)CCC(Nc1c2ccccc2[n+]([O-])c2ccccc12)C(=O)O (stereo unspecified)  LXFL 529     31 µM (inactive)
 7  C/C(CC(=O)Nc1ccccc1C)=N/NS(=O)(=O)c1ccc(C)cc1  LXFL 529  > 100 µM (inactive)
 8  Cc1no[n+]([O-])c1/C=N/NS(=O)(=O)c1ccccc1  LXFL 529  > 100 µM (inactive)
 9  COC(=O)CC(NC(=O)OCc1ccccc1)C(C(=O)OCc1ccccc1)C1(C)OCCO1 (stereo unspecified)  LXFL 529   18.8 µM (inactive)
10                          COCNC(=NC#N)NCOC  LXFL 529  > 100 µM (inactive)
11  O=c1[nH]c2cc([N+](=O)[O-])ccc2nc1/C(=N\NO)C(O)c1ccc([N+](=O)[O-])cc1 (stereo unspecified)  LXFL 529  > 100 µM (inactive)
12  CC1=C(C(=O)Nc2cc(=O)n(C)c(=O)n2C)C(c2cccc([N+](=O)[O-])c2)C(C(=O)Nc2cc(=O)n(C)c(=O)n2C)=C(C)N1  LXFL 529  > 100 µM (inactive)
13  O=C(O)CCC1c2[nH]c3ccccc3c2CCN1Cc1ccccc1 (stereo unspecified)  LXFL 529  > 100 µM (inactive)
14     CCOC(=O)c1c[nH]c2c(ccc3nn(C)nc32)c1=O  LXFL 529  > 100 µM (inactive)
15           CC(C)(C)C1CCN(C(=O)c2ccccc2)CC1  LXFL 529     70 µM (inactive)
16  Cc1ccc(NC(=O)C(=O)CC(=O)C2CCOC2=O)c(C)c1 (stereo unspecified)  LXFL 529  > 100 µM (inactive)
17  C/C(=N\N)C(CN1CCOCC1)C(c1ccccc1)c1c(O)c2ccccc2oc1=O (stereo unspecified)  LXFL 529  > 100 µM (inactive)
18                  Cn1ccnc1CCc1c(Cl)cccc1Cl  LXFL 529  > 100 µM (inactive)
19  Cc1cc(Cl)ccc1NC(=O)/C(=N\NC(C)(C)C)C(C#N)c1nc(-c2ccc([N+](=O)[O-])cc2)cs1 (stereo unspecified)  LXFL 529  > 100 µM (inactive)
20  Cc1c(C(=O)CC(=O)C(=O)Nc2c(C(C)C)cccc2C(C)C)[n+]([O-])c2ccccc2[n+]1[O-]  LXFL 529   11.1 µM (inactive)
21  C[N+](C)(C)CC(CC(=O)[O-])C1CC1 (stereo unspecified)  LXFL 529  > 100 µM (inactive)
22  CC(C)(C)[C@H]1CC[C@@](O)(c2ccccc2)CC1.CC(C)(C)[C@H]1CC[C@](O)(c2ccccc2)CC1  LXFL 529   21.1 µM (inactive)
23  CC12OC3(C)OC(=O)C(c4ccccc4)(O1)C3(C)O2 (stereo unspecified)  LXFL 529  > 100 µM (inactive)
24            CCOC(=O)c1cnc2cc3cccccc3n2c1=O  LXFL 529  > 100 µM (inactive)
25  COc1ccc(/N=N/c2c(-c3ccccc3)nn(C(=O)CC(=O)Nc3ccc(OC)cc3)c2-c2ccccc2)cc1  LXFL 529   60.5 µM (inactive)
